value kind: melting point (°C)

{"smiles input": "COc1ccnc(C(=O)Nc2nc3cc(Cl)ccc3[nH]2)c1", "melting point / °C": 245}
{"smiles input": "O=C(Nc1nc2cc(Cl)c(Cl)cc2[nH]1)c1ccccn1", "melting point / °C": 281}
{"smiles input": "Cc1cccnc1C(=O)Nc1nc2cc(Cl)ccc2[nH]1", "melting point / °C": 180}
{"smiles input": "O=C(Nc1nc2cc(Cl)ccc2[nH]1)c1ccnc2ccccc12", "melting point / °C": 262}
{"smiles input": "Cc1ccc(C(=O)Nc2nc3cc(C)ccc3[nH]2)nc1", "melting point / °C": 256}

---

value kind: melting point (°C)

Example entries begin here.
{"compound": "CCCCc1ccc(C(=O)Nc2nc3cc(C)ccc3[nH]2)nc1 [BZ 6]", "readout unit": "°C", "value": 245}
{"compound": "Cc1ccc2[nH]c(NC(=O)c3ncccc3C)nc2c1 [BZ 4]", "readout unit": "°C", "value": 173}

a: O=C(Nc1nc2cc(Cl)ccc2[nH]1)c1ccc(-c2ccccc2)cn1 [BZ 18]
b: CCCCc1ccc(C(=O)Nc2nc3cc(OC)ccc3[nH]2)nc1 [BZ 27]
Request: Smaller melting point value? Options are a and b Answer by stating the label of the chosen item.
Response: b

---

Test system: Vero cells
Test: Cytotoxicity on epithelial Vero cell cultures
Assay type: cell-based
Details: Vero cells
value kind: CC50 (µM)
Only the number, expressed in µM, is required.

CC50 recorded for this compound, CCCCc1ccc(C(=O)Nc2nc3cc(Cl)ccc3[nH]2)nc1 [BZ 17] , is 3.4

CC50 reading for COc1ccc2[nH]c(NC(=O)c3ccc(-c4ccccc4)cn3)nc2c1 [BZ 28] : 14.6

Cc1ccc2[nH]c(NC(=O)c3ccc(-c4ccccc4)cn3)nc2c1 [BZ 7] has a reported CC50 of 19.5

Quick note, CC50 for CCCCCCCCC(N)C(=O)Nc1ccc2[nH]c(NC(=O)c3ccccn3)nc2c1 (centres unmarked) [BZ 32] landed at 16.4

Briefly, CC50 measured for CCCCc1ccc(C(=O)Nc2nc3cc(C)c(C)cc3[nH]2)nc1 [BZ 34] : 3.2

---

Test: Cytotoxicity on epithelial Vero cell cultures
Type: cell-based
Details: African green monkey, epithelial Vero cells
value kind: CC50 (µM)
Dear colleague, please return just the value in µM, with no unit written.

Examples with answers:
{"smiles input": "O=C(Nc1nc2cc(Cl)ccc2[nH]1)c1ccccn1", "CC50 (µM)": 15.4}
{"smiles input": "COc1ccnc(C(=O)Nc2nc3cc(Cl)ccc3[nH]2)c1", "CC50 (µM)": 2}
{"smiles input": "O=C(Nc1nc2cc(Cl)c(Cl)cc2[nH]1)c1ccccn1", "CC50 (µM)": 11.8}
{"smiles input": "CCCCc1ccc(C(=O)Nc2nc3cc(C)ccc3[nH]2)nc1", "CC50 (µM)": 6.6}
{"smiles input": "O=C(Nc1nc2cc(Cl)ccc2[nH]1)c1ccnc2ccccc12", "CC50 (µM)": 16.1}

Value of measured CC50 for the entry Cc1cc2nc(NC(=O)c3ccccn3)[nH]c2cc1C : 13.2

The compound listed as Cc1ccc(C(=O)Nc2nc3cc(C)ccc3[nH]2)nc1 shows CC50 equal to 4.5

// recorded CC50 for Cc1cccnc1C(=O)Nc1nc2cc(Cl)ccc2[nH]1 : 8.6

CC50 in this record for O=C(Nc1nc2cc(Cl)ccc2[nH]1)c1ccc(-c2ccccc2)cn1 : 0.6

The recorded CC50 for entry Cc1ccc(C(=O)Nc2nc3cc(Cl)ccc3[nH]2)nc1 equals 7.2

For record Cc1ccc2[nH]c(NC(=O)c3ccccn3)nc2c1 the listed CC50 is 14.8

Measured CC50, COc1ccc2[nH]c(NC(=O)c3ccc(C)cn3)nc2c1 : 11.1

Please fill in: CC50 reported for Cc1ccc2[nH]c(NC(=O)c3ncccc3C)nc2c1 = 6.8

The compound CCCCc1ccc(C(=O)Nc2nc3cc(OC)ccc3[nH]2)nc1 showed CC50 equal to 8.5

---

Test system: Vero cells
Assay: Cytotoxicity on epithelial Vero cell cultures
Assay type: cell-based
Details: Vero cells
value kind: CC50 (µM)
Report the figure in µM without appending any unit label.

{"molecule": "Cc1ccc2[nH]c(NC(=O)c3ccc4ccccc4n3)nc2c1 [BZ 9]", "readout unit": "µM", "CC50": 63}

With Vero cells as the test system, Cc1cc2nc(NC(=O)c3ccc(-c4ccccc4)cn3)[nH]c2cc1C [BZ 35] showed CC50 of 9.7

The value of CC50 recorded for CCCCCCCCC(NC(=O)OC(C)(C)C)C(=O)Nc1ccc2[nH]c(NC(=O)c3ccccn3)nc2c1 (stereo not shown) [BZ 31] when tested on Vero cells reads 26.8

Record O=C(Nc1nc2cc([N+](=O)[O-])ccc2[nH]1)c1ccccn1 [BZ 29] ; system Vero cells; CC50 = 13.9
